Molecular target: poly(ADP-ribose) synthetase/polymerase (PARP) (Rattus norvegicus)
Construct: Nuclear extracts from RINm5F cells were prepared as described; endogenous in cells; host or cells: RINm5F (rat insulinoma) nuclear extract
Sequence (P27008 whole entry): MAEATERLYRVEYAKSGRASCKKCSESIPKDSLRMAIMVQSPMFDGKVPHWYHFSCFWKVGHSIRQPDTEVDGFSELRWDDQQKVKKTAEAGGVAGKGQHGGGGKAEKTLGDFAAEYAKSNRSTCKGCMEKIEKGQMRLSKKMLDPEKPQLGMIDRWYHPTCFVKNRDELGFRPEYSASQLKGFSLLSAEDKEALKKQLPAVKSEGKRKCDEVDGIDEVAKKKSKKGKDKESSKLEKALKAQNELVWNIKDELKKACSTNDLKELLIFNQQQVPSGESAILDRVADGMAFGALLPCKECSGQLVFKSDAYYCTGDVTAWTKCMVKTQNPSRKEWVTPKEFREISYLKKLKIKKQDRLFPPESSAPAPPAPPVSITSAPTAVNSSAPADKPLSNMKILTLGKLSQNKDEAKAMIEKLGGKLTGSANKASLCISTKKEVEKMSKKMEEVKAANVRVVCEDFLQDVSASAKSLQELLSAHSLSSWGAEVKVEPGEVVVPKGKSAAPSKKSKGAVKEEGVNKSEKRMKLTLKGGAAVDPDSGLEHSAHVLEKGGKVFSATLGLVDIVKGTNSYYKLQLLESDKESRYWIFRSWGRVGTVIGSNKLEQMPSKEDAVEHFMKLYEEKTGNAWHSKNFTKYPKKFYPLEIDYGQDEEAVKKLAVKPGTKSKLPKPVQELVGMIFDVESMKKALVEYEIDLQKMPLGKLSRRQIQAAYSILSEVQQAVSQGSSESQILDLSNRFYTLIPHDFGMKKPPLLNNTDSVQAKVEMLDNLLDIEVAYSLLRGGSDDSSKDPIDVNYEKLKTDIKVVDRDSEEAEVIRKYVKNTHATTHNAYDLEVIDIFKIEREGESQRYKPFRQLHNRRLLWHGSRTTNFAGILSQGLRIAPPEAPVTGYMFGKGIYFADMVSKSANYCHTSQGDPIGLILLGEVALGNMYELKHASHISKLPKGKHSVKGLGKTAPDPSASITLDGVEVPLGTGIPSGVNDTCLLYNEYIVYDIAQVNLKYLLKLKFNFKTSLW
Assay: GMSA binding reaction of RINm5F nuclear extracts, effects of ADP-ribosylation
Type: biochemical
Details: added to the binding reaction prior to the 32P-probe
endpoint: intensity of the IL-6/dexamethasone/nicotinamide-dependent GMSA band

NC(=O)c1ccc[n+]([C@H]2O[C@H](COP(=O)(O)OP(=O)(O)OC[C@H]3O[C@@H](n4cnc5c(N)ncnc54)[C@H](O)[C@@H]3O)[C@@H](O)[C@H]2O)c1 [α-NAD^+] = not
